# Target Or Test System: Nicotinic acetylcholine receptor alpha3/betaX
# Assay Notes: Stimulation of cation efflux in Nicotinic acetylcholine receptor alpha3-betaX subtype expressing IMR-32 cells
Readout Name: EC50

Qu. Answer with the recorded EC50 for the compound listed here: "Cc1ccc(OC[C@@H]2CCCN2C)cn1"
Ans. 13.4 µM

Qu. Answer with the recorded EC50 for the compound listed here: "Cc1ncccc1OC[C@@H]1CCCN1C"
Ans. 18.2 µM

Qu. Answer with the recorded EC50 for the compound listed here: "CN1CCC[C@H]1COc1ccc(Br)nc1"
Ans. > 1000 µM

Qu. Answer with the recorded EC50 for the compound listed here: "CCc1cncc(OC[C@@H]2CCCN2C)c1"
Ans. > 1000 µM

Qu. Answer with the recorded EC50 for the compound listed here: "CN1CCC[C@H]1COc1ccc(Cl)nc1"
Ans. 27.1 µM

Qu. Answer with the recorded EC50 for the compound listed here: "Cc1cncc(OC[C@@H]2CCCN2C)c1"
Ans. 2.9 µM

Qu. Answer with the recorded EC50 for the compound listed here: "CN1CCC[C@H]1COc1cccnc1Br"
Ans. > 1000 µM

Qu. Answer with the recorded EC50 for the compound listed here: "CN1CCC[C@H]1COc1cnccc1Br"
Ans. > 1000 µM

Qu. Answer with the recorded EC50 for the compound listed here: "CCCCc1cncc(OC[C@@H]2CCCN2C)c1"
Ans. > 1000 µM

Qu. Answer with the recorded EC50 for the compound listed here: "CN1CCC[C@H]1COc1cccnc1"
Ans. 19.4 µM

Qu. Answer with the recorded EC50 for the compound listed here: "CCCc1cncc(OC[C@@H]2CCCN2C)c1"
Ans. > 1000 µM

Qu. Answer with the recorded EC50 for the compound listed here: "Cc1ccncc1OC[C@@H]1CCCN1C"
Ans. > 1000 µM
